System: E. coli
Assay type: cell-based
Details: 18 h
Where a SMILES comes first, the peptide text is derived from it.
Experimental Readout: MIC E. coli (µg/mL)
Numbers only here, please. The scale is µg/mL.

Compound	MIC E. coli [µg/mL]
CC(C)C[C@H](NC(=O)[C@H](CCCNC(=N)N)NC(=O)[C@H](CCCCN)NC(=O)[C@H](Cc1ccccc1)NC(=O)[C@H](Cc1ccccc1)NC(=O)[C@@H](N)CCCCN)C(=O)N[C@@H](CC(C)C)C(=O)N[C@@H](CCCCN)C(=O)N[C@@H](CO)C(=O)N[C@H](C(=O)N[C@@H](CCCNC(=N)N)C(=O)N[C@@H](CCCNC(=N)N)C(=O)N[C@@H](C)C(=O)N[C@H](C(=O)N[C@@H](CCCCN)C(N)=O)C(C)C)C(C)C [Hc5] (H-KFFKRLLKSVRRAVK-NH2)	37.5

Given item CC(C)C[C@H](NC(=O)[C@H](CCCNC(=N)N)NC(=O)[C@H](CCCCN)NC(=O)[C@H](Cc1ccccc1)NC(=O)[C@H](Cc1ccccc1)NC(=O)[C@@H](N)CCCCN)C(=O)N[C@@H](CC(C)C)C(=O)N[C@@H](CCCCN)C(=O)N[C@@H](CO)C(=O)N[C@H](C(=O)N[C@@H](CCCNC(=N)N)C(=O)N[C@@H](CCCNC(=N)N)C(=O)N[C@@H](C)C(=O)N[C@H](C(N)=O)C(C)C)C(C)C [Hc6] (H-KFFKRLLKSVRRAV-NH2) , the value recorded as its MIC E. coli is 75

Given item CC(C)C[C@H](NC(=O)[C@H](CCCNC(=N)N)NC(=O)[C@H](CCCCN)NC(=O)[C@H](Cc1ccccc1)NC(=O)[C@H](Cc1ccccc1)NC(=O)[C@@H](N)CCCCN)C(=O)N[C@@H](CC(C)C)C(=O)N[C@@H](CCCCN)C(=O)N[C@@H](CO)C(=O)N[C@H](C(=O)N[C@@H](CCCNC(=N)N)C(=O)N[C@@H](CCCNC(=N)N)C(=O)N[C@@H](C)C(=O)N[C@H](C(=O)N[C@@H](CCCCN)C(=O)N[C@@H](CCCCN)C(N)=O)C(C)C)C(C)C [Hc4] (H-KFFKRLLKSVRRAVKK-NH2) , the value recorded as its MIC E. coli is 75

Given item CC(C)C[C@H](NC(=O)[C@H](CC(C)C)NC(=O)[C@H](CCCNC(=N)N)NC(=O)[C@H](CCCCN)NC(=O)[C@@H](N)Cc1ccccc1)C(=O)N[C@@H](CCCCN)C(=O)N[C@@H](CO)C(=O)N[C@H](C(=O)N[C@@H](CCCNC(=N)N)C(=O)N[C@@H](CCCNC(=N)N)C(=O)N[C@@H](C)C(=O)N[C@H](C(=O)N[C@@H](CCCCN)C(=O)N[C@@H](CCCCN)C(=O)N[C@@H](Cc1ccccc1)C(N)=O)C(C)C)C(C)C [Hc15] (H-FKRLLKSVRRAVKKF-NH2) , the value recorded as its MIC E. coli is 75

Given item CC(C)C[C@H](NC(=O)[C@H](CC(C)C)NC(=O)[C@H](CCCNC(=N)N)NC(=O)[C@H](CCCCN)NC(=O)[C@@H](N)Cc1ccccc1)C(=O)N[C@@H](CCCCN)C(=O)N[C@@H](CO)C(=O)N[C@H](C(=O)N[C@@H](CCCNC(=N)N)C(=O)N[C@@H](CCCNC(=N)N)C(=O)N[C@@H](C)C(=O)N[C@H](C(=O)N[C@@H](CCCCN)C(=O)N[C@@H](CCCCN)C(=O)N[C@@H](Cc1ccccc1)C(=O)N[C@@H](CCCNC(=N)N)C(=O)N[C@@H](CCCCN)C(N)=O)C(C)C)C(C)C [Hc9] (H-FKRLLKSVRRAVKKFRK-NH2) , the value recorded as its MIC E. coli is 150

Given item CC(C)C[C@H](NC(=O)[C@H](CCCNC(=N)N)NC(=O)[C@H](CCCCN)NC(=O)[C@H](Cc1ccccc1)NC(=O)[C@H](Cc1ccccc1)NC(=O)[C@@H](N)CCCCN)C(=O)N[C@@H](CC(C)C)C(=O)N[C@@H](CCCCN)C(=O)N[C@@H](CO)C(=O)N[C@H](C(=O)N[C@@H](CCCNC(=N)N)C(=O)N[C@@H](CCCNC(=N)N)C(=O)N[C@@H](C)C(=O)N[C@H](C(=O)N[C@@H](CCCCN)C(=O)N[C@@H](CCCCN)C(=O)N[C@@H](Cc1ccccc1)C(N)=O)C(C)C)C(C)C [Hc3] (H-KFFKRLLKSVRRAVKKF-NH2) , the value recorded as its MIC E. coli is 18.75
